Target: wild type human RORγt LBD (Homo sapiens, UniProt P51449)
Construct: expressed in transfected cells; host or cells: HEK293T
Sequence (P51449 269-508 limits assumed): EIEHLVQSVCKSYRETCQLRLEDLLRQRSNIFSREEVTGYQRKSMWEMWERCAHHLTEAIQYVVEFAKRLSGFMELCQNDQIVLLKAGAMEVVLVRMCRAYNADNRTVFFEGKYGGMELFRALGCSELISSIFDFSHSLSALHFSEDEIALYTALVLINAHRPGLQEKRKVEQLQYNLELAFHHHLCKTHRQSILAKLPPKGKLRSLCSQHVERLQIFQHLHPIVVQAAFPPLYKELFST
Assay: RORγt Reporter Assay (GAL4-RORγt LBD luciferase in HEK293T cells)
Format: cell-based
Details: RORγt reporter Assay, IC50 (µM), HEK293T cells, compounds for 24 hours
Measurement name: IC50

- Cn1cncc1C(O)(c1ccc(Cl)cc1)c1ccc2nc(OCCN3CC3)c(-c3ccccc3)c(Cl)c2c1 (stereo not shown) [Example 44]: > 6 µM

---

Target: wild type human RORγt LBD (Homo sapiens)
Construct: expressed in transfected cells; host or cells: HEK293T
Assay: RORγt Reporter Assay (GAL4-RORγt LBD luciferase in HEK293T cells)
Format: cell-based
Conditions: HEK293T cells, compounds for 24 hours; read-out: RORγt reporter Assay, IC50
Description: A reporter assay was used to test functional activity of RORγt modulatory compounds on transcriptional activation driven by the RORγt LBD. Cells used in the assay were co-transfected with two constructs. The first construct, pBIND-RORγt LBD, contained the wild type human RORγt LBD fused to the DNA binding domain of the GAL4 protein. The second construct, pGL4.31 (Promega Cat no. C935A), contained multiple GAL4 responsive DNA elements upstream of firefly luciferase. […]
Measurement name: IC50

• CC(=O)N1CCC(C(O)(c2ccccc2)c2cc(C)c3nc(C#N)c(-c4ccccc4)c(C#N)c3c2)CC1 (single isomer, unassigned) [Example 21c] = 190 nM
• Cn1cncc1C(O)(c1ccc(Cl)cc1)c1ccc2nc(Cl)c(-c3cccnc3)c(Cl)c2c1 (stereo not shown) = 1900 nM
• COc1ncc(-c2c(OC)nc3ccc(C(O)(c4ccc(C(F)(F)F)nc4)c4cncn4C)cc3c2Cl)cn1 (stereo not shown) = > 6000 nM
• Cn1cncc1C(O)(c1ccc2nc(C#N)c(-c3ccccc3)c(C#N)c2c1)c1ccccn1 (single isomer, unassigned) [Example 18b] = > 6000 nM

---

Target: wild type human RORγt LBD (Homo sapiens)
Construct: expressed in transfected cells; host or cells: HEK293T
Assay: RORγt Reporter Assay (GAL4-RORγt LBD luciferase in HEK293T cells)
Type: cell-based
Details: HEK293T cells, compounds for 24 hours; read-out: RORγt reporter Assay, IC50
Grouping by measured IC50 is done with the following cut points: group 1: < 0.3 µM; group 2: ≥ 0.3 µM and < 0.8 µM; group 3: ≥ 0.8 µM

- COc1nc2ccc(C(O)(c3cncn3C)c3cnnn3C)cc2c(C#N)c1-c1cccc(C(F)(F)F)c1 (single isomer, unassigned) [Example 4b]: group 1
- Cn1cncc1C(O)(c1ccc(Cl)cc1)c1ccc2nc(Cl)c(-c3ccccn3)c(Cl)c2c1 (stereo not shown): group 3
- Cn1cncc1C(O)(c1ccc2nc(C#N)c(-c3ccccc3)c(C#N)c2c1)c1ccccn1 (single isomer, unassigned) [Example 18c]: group 3
- COc1nc2ccc(C(O)(c3cncn3C)c3cnnn3C)cc2c(Cl)c1-c1cccc(C(F)(F)F)c1 (single isomer, unassigned) [Example 3c]: group 1
- COc1nc2ccc(C(O)(c3ccc(C(F)(F)F)nc3)c3cncn3C)cc2c(Cl)c1-c1cccc(S(C)(=O)=O)c1 (stereo not shown): group 3
- COc1nc2ccc(C(O)(c3cnnn3C)c3cnc(C)n3C)cc2c(Cl)c1-c1ccccc1 (single isomer, unassigned) [Example 41c]: group 1
- CN(C)c1nc2ccc(C(O)(c3ccncc3)c3ccccn3)cc2c(Cl)c1-c1ccccc1 (stereo not shown): group 3
- OC(c1ccccc1)(c1ccncc1)c1ccc2nc(Cl)c(-c3ccccc3Cl)c(Cl)c2c1 (stereo not shown): group 2
- CC(=O)N1CCC(C(O)(c2ccc3nc(C(F)(F)F)c(-c4ccccc4)c(Cl)c3c2)c2cncn2C)CC1 (single isomer, unassigned) [Example 34b]: group 3
- CC(=O)N1CCC(C(O)(c2cccnc2)c2ccc3nc(C(F)(F)F)c(-c4ccccc4)c(Cl)c3c2)CC1 (stereo not shown): group 1
- CON(C)c1nc2ccc(C(O)(c3ccc(C(F)(F)F)nc3)c3cncn3C)cc2c(N(C)OC)c1-c1ccccc1 (stereo not shown): group 2
